I'd be grateful if you could share measured Percent Effect for these entries.
# experiment description: In vitro enzyme assay to detect hydrolysis of chlorophenol red-beta-D-[…] directly proportional to the number of Toxoplasma stably expressing beta-galactosidase
# Type: functional, organism-based, Toxoplasma gondii
# Design: scale not given: in the data most compounds retested in dose-response had high values
# condition description: 50 µM
In all, about 85,000 compounds went through this assay and about 440 (0.52%) showed an effect of 50% or more. This is one part of a sample in which strong results are shown more often than they occur.
Give bare numbers, in %.

Examples from the recorded data:
{"columns": ["molecule", "quantity kind", "observed measurement"],
 "data": [
  ["c1cnn(CCCNCCCn2cccn2)c1", "Percent Effect", 0.4357],
  ["CC1CCCN(Cc2nc(N)nc(N(C)C)n2)C1 (stereo unspecified)", "Percent Effect", 28.57],
  ["Cc1ccc(C(=O)COC(=O)c2cccnc2N)cc1", "Percent Effect", -8.374],
  ["CCNC(=O)C(C)N (stereo unspecified)", "Percent Effect", -4.292],
  ["NCC(CO)Cc1ccc(F)c(F)c1 (stereo unspecified)", "Percent Effect", 20.05],
  ["CC(C)c1nnsc1CNC(=O)CCc1csc(N)n1", "Percent Effect", -4.031],
  ["CC(=O)NC(C(=O)N(C)Cc1cccs1)C(C)C (stereo unspecified)", "Percent Effect", 4.166],
  ["CC(c1cccnc1)N(C)C(=O)c1ccccc1C#N (stereo unspecified)", "Percent Effect", -2.098]
]}

Provide each entry's Percent Effect from the list below.
1. N#CCCNC(=O)CN1CCCCC1
2. CCC(=O)NC1CCCN(Cc2noc(C)n2)C1 (stereo unspecified)
3. Cc1cc(C)n(CCC(=O)NC2C=CS(=O)(=O)C2)n1 (stereo unspecified)
4. NC(=O)COC(=O)c1cc(Cl)cc(C(F)(F)F)c1

[-2.214, 11.52, -3.643, -16.81]

----------
# experiment description: In vitro enzyme assay to detect hydrolysis of chlorophenol red-beta-D-[…] directly proportional to the number of Toxoplasma stably expressing beta-galactosidase
# Format: functional, organism-based, Toxoplasma gondii
# Design: scale not given: in the data most compounds retested in dose-response had high values
# condition description: 50 µM
Among all 85,000 compounds or so, about 440 (0.52%) showed an effect of 50% or more. This excerpt belongs to a sample that is enriched for strong results.
I'd be grateful if you could share measured Percent Effect for these entries.
Give bare numbers, in %.

{"columns": ["compound", "Percent Effect [%]"],
 "data": [
  ["CCNS(=O)(=O)c1csc(C(=O)Nc2cc(C)on2)c1", 60.53]
]}

Provide each entry's Percent Effect from the list below.
1. N[C@@H]1CC[C@H](C(=O)NCc2csc(N3CCCC3)n2)C1
2. Cc1cc(Br)cc(C(=O)NC2(C(N)=O)CC2)c1
3. O=C(NC1CCCSC1)N[C@H](CO)Cc1ccccc1 (some centres not stated)
4. O=C1NCCN(C(=O)c2ccc(Br)o2)C1c1cccs1 (configuration not stated)
5. CCn1cc(C(=O)NCCCC(N)=O)c2ccccc21
6. Cc1cc(NC(=O)c2ccc(S(C)(=O)=O)cc2)no1
7. CC(C)N(CC(N)=O)CC(=O)NCCc1cccs1
8. COC(=O)c1cnc2[nH]nc(C)c2c1

1. 62.86
2. 10.26
3. 1.879
4. 99.65
5. -17.15
6. 1.537
7. 12.36
8. 55.45

Provide each entry's Percent Effect from the list below.
1. CCOC(=O)c1sc(O)nc1C
2. O=C(C1CC1)N1CCC(Oc2cccnc2)C1 (configuration not stated)
3. CC(C)OCC(O)CN1CCN(C(C)C)CC1 (configuration not stated)

-0.2183
1.461
-5.583
